The reported measurements were obtained from patent US10323027B2.

- STUDY TARGET: human M1 receptor (hCHRM1) (Homo sapiens)
- Construct: expressed in transfected cells
- PROCEDURE DETAILS: Measurement of M1 receptor positive allosteric modulator (M1PAM) activity, Ca2+ fluorescence by FLIPRtetra (Experimental Example 1)
- Format: cell-based
- TEST PARAMETERS: 10 μM test compound, 100% = acetylcholine 1 μM, 0% = DMSO
Examples of molecules with documented activity (%) at 10 μM follow.
REPORTED PROPERTY: activity (%) at 10 μM

• Cc1cc2c(cc1Cc1ccc(-c3cn(C)nn3)cc1)C(=O)N(CC1CCCO1)CO2 (stereo not shown) = 92%
• Cc1c(Cc2ccc(-c3ccn(C)n3)nc2)cc2c(c1F)OCN([C@H]1CCC[C@@H]1O)C2=O = 105%
• COc1ccc(Cc2cc3c(c(C)c2C)OCN([C@H]2COCC[C@@H]2O)C3=O)cc1 (single isomer, unassigned) [Example 17] = 112%
• N#CC1CCN(Cc2cc3c(c4ccccc24)OCN([C@H]2CCC[C@@H]2O)C3=O)CC1 = 104%

====

- STUDY TARGET: human M1 receptor (hCHRM1) (Homo sapiens, UniProt P11229)
- Construct: expressed in transfected cells
- Sequence (P11229 1-460): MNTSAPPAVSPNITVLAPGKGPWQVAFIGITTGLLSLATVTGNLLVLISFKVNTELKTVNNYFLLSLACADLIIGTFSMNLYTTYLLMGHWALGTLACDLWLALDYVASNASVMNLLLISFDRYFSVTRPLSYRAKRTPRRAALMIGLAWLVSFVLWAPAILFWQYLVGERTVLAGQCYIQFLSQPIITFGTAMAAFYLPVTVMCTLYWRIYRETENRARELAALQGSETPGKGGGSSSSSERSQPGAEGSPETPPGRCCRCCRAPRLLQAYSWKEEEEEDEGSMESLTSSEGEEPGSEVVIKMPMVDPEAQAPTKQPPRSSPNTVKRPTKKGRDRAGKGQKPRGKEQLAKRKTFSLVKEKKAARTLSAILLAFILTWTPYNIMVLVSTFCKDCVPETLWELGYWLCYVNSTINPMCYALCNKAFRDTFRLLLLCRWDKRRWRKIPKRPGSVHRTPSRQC
- PROCEDURE DETAILS: Measurement of M1 receptor positive allosteric modulator (M1PAM) activity, Ca2+ fluorescence by FLIPRtetra (Experimental Example 1)
- Format: cell-based
- TEST PARAMETERS: inflection point of concentration-dependent curve, in presence of acetylcholine at EC20 (0.8-1.0 nM), CHO-K1 cells expressing hCHRM1, read-out: IP value
# maps each entry to its EC50
REPORTED PROPERTY: EC50

* Cc1ccc(Cc2cc3c(cc2C)OCN([C@H]2CCCC[C@@H]2O)C3=O)cn1 (relative stereo) [Example 33] | 39 nM
* Cn1cc(-c2ccc(Cc3cc4c(c5ccccc35)OCN([C@H]3CCCC[C@@H]3O)C4=O)cn2)cn1 (relative stereo) | 1.8 nM
* O=C1c2cc(CN3CCC(F)(F)C3)c3ccccc3c2OCN1[C@H]1CCC[C@@H]1O | 51 nM
* Cc1c(Cc2ccc(-n3cccn3)nc2)cc2c(c1F)OCN([C@H]1CCC[C@@H]1O)C2=O | 6 nM
* Cc1ccc(Cc2cc3c(c(C)c2C)OCN([C@H]2CCC[C@@H]2O)C3=O)cn1 [Example 11] | 8.5 nM
* COc1ccc(Cc2cc3c(c(C)c2C)OCN([C@H]2COCC[C@@H]2O)C3=O)cc1 (single isomer, unassigned) [Example 17] | 27 nM
* Cc1c(Cc2ccc(Cl)nc2)cc2c(c1F)OCN([C@H]1CCC[C@@H]1O)C2=O | 20 nM

====

- STUDY TARGET: human M1 receptor (hCHRM1) (Homo sapiens)
- Construct: expressed in transfected cells
- PROCEDURE DETAILS: Measurement of M1 receptor positive allosteric modulator (M1PAM) activity, Ca2+ fluorescence by FLIPRtetra (Experimental Example 1)
- Assay type: cell-based
- TEST PARAMETERS: inflection point of concentration-dependent curve, in presence of acetylcholine at EC20 (0.8-1.0 nM), CHO-K1 cells expressing hCHRM1, read-out: IP value
- Description: Measurement of M1 Receptor Positive Allosteric Modulator (M1PAM) Activity The activity of a test compound in the presence of acetylcholine at EC20 concentration (final concentration 0.8-1.0 nM), which affords an action corresponding to about 20% of the maximum activity, was measured as PAM activity. The method is as follows. […]
pEC50: −log10 of the molar value.
Measured pEC50, listed per entry for reference.
REPORTED PROPERTY: pEC50

- Cn1cc(-c2ccc(Cc3cc4c(c5ccccc35)OCNC4=O)cn2)cn1: 8.28
- O=C1c2cc(CN3CCC(F)CC3)c3ccccc3c2OCN1[C@H]1CCC[C@@H]1O: 7.11
- Cn1cc(-c2ccc(Cc3ccc4c(c3)C(=O)N([C@H]3CCCC[C@@H]3O)CO4)cn2)cn1 (relative stereo): 7.49
- COc1ccc(Cc2cc3c(c(C)c2C)OCN([C@H]2COCC[C@@H]2O)C3=O)cc1 (relative stereo) [Example 59]: 7.68
- O=C1c2cc(CN3CCOCC3)c3ccccc3c2OCN1[C@H]1CCC[C@@H]1O: 7.20
- Cc1ccc(Cc2cc3c(c(C)c2C)OCN([C@H]2COCC[C@@H]2O)C3=O)cn1 [Example 137]: 7.85
- COc1ccc(Cc2cc3c(cc2C)OCN([C@H]2COCC[C@@H]2O)C3=O)cc1 (relative stereo): 7.00
- Cc1ccc(Cc2cc3c(c4ccccc24)OCN(CC2CCCO2)C3=O)cn1 (stereo not shown) [Example 68]: 7.32
- Cc1c(Cc2ccc(-c3ccn(C)n3)nc2)cc2c(c1C)OCN([C@H]1COCC[C@@H]1O)C2=O: 8.92
- Cc1ccc(Cc2cc3c(c4ccccc24)OCN([C@H]2COCC[C@@H]2O)C3=O)cn1 (single isomer, unassigned) [Example 3]: 8.60
- Cc1c(Cc2ccc(C#N)cc2)cc2c(c1F)OCN([C@H]1CCC[C@@H]1O)C2=O: 7.82
- O=C1c2cc(CN3CC[S+]([O-])CC3)c3ccccc3c2OCN1[C@H]1CCC[C@@H]1O: 7.66
- Cn1cc(-c2ccc(Cc3ccc4c(c3)C(=O)N(c3ccccc3F)CO4)cn2)cn1: 6.64
- Cc1ccc(Cc2cc3c(c(Cl)c2C)OCN([C@H]2COCC[C@@H]2O)C3=O)cn1: 8.15
- O=C1c2cc(Cc3ccc(Cl)nc3)c3ccccc3c2OCN1[C@H]1CCC[C@@H]1O: 8.62
- Cc1c(Cc2ccc(-c3cnn(C)c3)nc2)cc2c(c1Cl)OCN(CC1CCCO1)C2=O (stereo not shown): 8.32

====

// values below are reported EC50
- STUDY TARGET: human M1 receptor (hCHRM1) (Homo sapiens)
- Construct: expressed in transfected cells
- PROCEDURE DETAILS: Measurement of M1 receptor positive allosteric modulator (M1PAM) activity, Ca2+ fluorescence by FLIPRtetra (Experimental Example 1)
- Format: cell-based
- TEST PARAMETERS: inflection point of concentration-dependent curve, in presence of acetylcholine at EC20 (0.8-1.0 nM), CHO-K1 cells expressing hCHRM1, read-out: IP value
REPORTED PROPERTY: EC50

• Cc1ccc(Cc2cc3c(c(Cl)c2C)OCN(CC2CCCO2)C3=O)cn1 (centres unmarked) [Example 84] = 96 nM
• Cc1c(Cc2ccc(C#N)cc2)cc2c(c1C)OCN([C@H]1CCC[C@@H]1O)C2=O [Example 44] = 3.9 nM
• Cc1cc2c(cc1Cc1ccc(-n3cccn3)nc1)C(=O)N([C@H]1CCCC[C@@H]1O)CO2 (relative stereo) [Example 36] = 12 nM
• Cc1ccc(Cc2cc3c(c4ccccc24)OCN(CC2CCCO2)C3=O)cn1 (centres unmarked) [Example 58] = 16 nM
• Cc1ccc(Cc2cc3c(c4ccccc24)OCN([C@H]2COCC[C@@H]2O)C3=O)cn1 [Example 133] = 3.6 nM
• Cc1ccc(Cc2cc3c(c(Cl)c2C)OCN([C@H]2CCCC[C@@H]2O)C3=O)cn1 [Example 2] = 2.5 nM
• Cc1c(Cc2ccc(Cl)nc2)cc2c(c1Cl)OCN([C@H]1CCC[C@@H]1O)C2=O [Example 24] = 3.1 nM
• Cc1cc(Cc2ccc(-n3cccn3)cc2)cc2c1OCN([C@H]1CCCC[C@@H]1O)C2=O (relative stereo) [Example 65] = 35 nM

====

Below, each entry is listed alongside its reported EC50.
- STUDY TARGET: human M1 receptor (hCHRM1) (Homo sapiens, UniProt P11229)
- Construct: expressed in transfected cells
- PROCEDURE DETAILS: Measurement of M1 receptor positive allosteric modulator (M1PAM) activity, Ca2+ fluorescence by FDSS/μ cell (Experimental Example 2)
- Type: cell-based
- TEST PARAMETERS: inflection point of concentration-dependent curve, in presence of acetylcholine at EC20 (0.8-1.0 nM), CHO-K1 cells expressing hCHRM1, read-out: IP value
REPORTED PROPERTY: EC50 (nM)

• Cc1c(Cc2ccc(-n3cccn3)cc2)cc2c(c1F)OCN(CC(C)(C)O)C2=O = 61
• Cc1c(Cc2ccc(-c3ccn(C)n3)cc2)cc2c(c1F)OCN([C@H]1COCC[C@@H]1O)C2=O = 5.3
• Cc1c(Cc2ccc(-c3ccn(C)n3)nc2)cc2c(c1Cl)OCN([C@H]1CCC[C@@H]1O)C2=O = 2.9
• Cc1cc2c(cc1Cc1ccc(-n3cccn3)nc1)C(=O)N([C@H]1CCCC[C@@H]1O)CO2 (single isomer, unassigned) = 13
• Cc1cc(-c2ccc(Cc3cc4c(c(F)c3C)OCN([C@H]3CCC[C@@H]3O)C4=O)cn2)ccn1 = 4
• CCc1cc2c(cc1Cc1ccc(OC)nc1)C(=O)N([C@H]1COCC[C@@H]1O)CO2 = 47
• Cc1c(Cc2ccc(C#C[Si](C)(C)C)nc2)cc2c(c1C)OCN([C@H]1COCC[C@@H]1O)C2=O = 68
• Cc1c(Cc2ccc(-n3cccn3)nc2)cc2c(c1Cl)OCN([C@H]1COCC[C@@H]1O)C2=O = 6.9
• Cc1cc2c(cc1Cc1ccc(-c3ccn(C)n3)cc1)C(=O)N([C@H]1COCC[C@@H]1O)CO2 = 4.5
• Cc1cc2c(cc1Cc1ccc(-n3cccn3)nc1)C(=O)N([C@H]1COCC[C@@H]1O)CO2 = 15
